species on record: Rattus norvegicus; assay: Inhibition of [3H]adenine binding to adenine 1 receptor in rat brain cortical membrane at 100 uM by liquid scintillation counting; format: cell membranes
Each entry below carries its reported inhibition.

Worked examples follow.
- COMPOUND: "Nc1ncnc2ncn(Cc3ccccc3)c12"
  inhibition: "11%"
- COMPOUND: "CC(C)(C)OC(=O)NCCNc1ncnc2[nH]cnc12"
  inhibition: "21%"
- COMPOUND: "CCn1cnc2c(N)nc(NCCc3ccccc3)nc21"
  inhibition: "3%"
- COMPOUND: "CCn1cnc2c(N)nc(OCCc3ccccc3)nc21"
  inhibition: "7%"
- COMPOUND: "CCn1cnc2c(NCCc3ccccc3)ncnc21"
  inhibition: "3%"

Form field inhibition, entry O=c1[nH]cnc2cc[nH]c12 : 0%

Form field inhibition, entry CCn1cnc2c(NC3CCCC3)ncnc21 : 5%

Form field inhibition, entry CCn1cnc2c(N)nc(Cl)nc21 : 1%

Form field inhibition, entry Nc1ncnc2[nH]c(-c3cccc(C(F)(F)F)c3)nc12 : 23%

* * *

species: Rattus norvegicus; test: Inhibition of [3H]adenine binding to adenine 1 receptor in rat brain cortical membrane at 100 uM by liquid scintillation counting; format: cell membranes
Each entry below carries its reported inhibition.
Lab book: enter the figure in %, no units written.

Worked examples follow.
- COMPOUND: "Nc1nc(Cl)nc2c1ncn2[C@H]1C[C@H](O)[C@@H](CO)O1"
  inhibition [%]: 9
- COMPOUND: "Nc1nc(C#Cc2ccccc2)nc2c1ncn2[C@@H]1O[C@H](CO)[C@@H](O)[C@H]1O"
  inhibition [%]: 0
- COMPOUND: "Nc1ncnc2c1N=CC2"
  inhibition [%]: 39

Form field inhibition, entry Nc1ncnc2[nH]c(-c3ccccc3)nc12 : 16

Form field inhibition, entry CCCCC#Cc1nc(N)c2ncn([C@@H]3O[C@H](CO)[C@@H](O)[C@H]3O)c2n1 : 5

Form field inhibition, entry Nc1nc(OCCC2CCCCC2)nc2[nH]cnc12 : -5

* * *

test: Agonist activity at rat adenine 1 receptor expressed in human 1321N1 cells assessed as inhibition of isoproterenol-induced [3H]cAMP formation by scintillation counting; format: functional, cell-based
PARAMETER: pIC50
# pIC50: negative log10 of molar concentration; output just the value

Form field pIC50, entry Nc1[nH]cnc2ncnc1-2 : 8.08

* * *

organism: Rattus norvegicus; assay: Inhibition of [3H]adenine binding to adenine 1 receptor in rat brain cortical membrane at 30 uM by liquid scintillation counting; format: cell membranes
PARAMETER: inhibition (%)
Lab book: enter the figure in %, no units written.

- COMPOUND: "CCSc1nc2c(N)ncnc2[nH]1"
  UNIT SYMBOL: "%"
  inhibition: 0
- COMPOUND: "Nc1ncnc2[nH]c(C#Cc3ccccc3)nc12"
  UNIT SYMBOL: "%"
  inhibition: 19
- COMPOUND: "CCCSc1nc2c(N)ncnc2[nH]1"
  UNIT SYMBOL: "%"
  inhibition: 0
- COMPOUND: "CSc1nc2c(N)ncnc2[nH]1"
  UNIT SYMBOL: "%"
  inhibition: 10

Form field inhibition, entry Nc1ncnc2[nH]c(Sc3ccccc3)nc12 : 0

* * *

species on record: Rattus norvegicus; experiment: Inhibition of [3H]adenine binding to adenine 1 receptor in rat brain cortical membrane at 100 uM by liquid scintillation counting; assay type: cell membranes
PARAMETER: inhibition (%)
Lab book: enter the figure in %, no units written.

Worked examples follow.
- COMPOUND: "CCn1cnc2c(OCCc3ccccc3)ncnc21"
  UNIT SYMBOL: "%"
  EXPERIMENTAL RESULT: 4
- COMPOUND: "CC(C)(C)OC(=O)NCCCNc1ncnc2[nH]cnc12"
  UNIT SYMBOL: "%"
  EXPERIMENTAL RESULT: 46

Form field inhibition, entry CCOc1ncnc2c1ncn2C1CCCCC1 : -1

* * *

Each entry below carries its reported inhibition.
organism: Rattus norvegicus; experiment: Inhibition of [3H]adenine binding to adenine 1 receptor in rat brain cortical membrane at 100 uM by liquid scintillation counting; assay type: cell membranes
Lab book: enter the figure in %, no units written.

- COMPOUND: "CCCCOc1nc(N)c2ncn(CC)c2n1"
  UNIT SYMBOL: "%"
  inhibition: 4
- COMPOUND: "Nc1ncnc2c1ncn2C1CCCCC1"
  UNIT SYMBOL: "%"
  inhibition: -6
- COMPOUND: "NCCNc1ncnc2[nH]cnc12"
  UNIT SYMBOL: "%"
  inhibition: 58
- COMPOUND: "Nc1nc(Cl)nc2c1ncn2[C@@H]1O[C@H](CO)[C@@H](O)[C@H]1O"
  UNIT SYMBOL: "%"
  inhibition: 1

Moving on to the next molecule.
Form field inhibition, entry NCCCNc1ncnc2[nH]cnc12 : 49

* * *

Each entry below carries its reported inhibition.
organism: Rattus norvegicus; test: Inhibition of [3H]adenine binding to adenine 1 receptor in rat brain cortical membrane at 100 uM by liquid scintillation counting; assay type: cell membranes
Lab book: enter the figure in %, no units written.

- MOLECULE: "Nc1ncnc2c1ncn2Cc1ccccc1"
  EXPERIMENTAL RESULT: 15

Form field inhibition, entry Nc1ncnc2[nH]ccc12 : 21

Form field inhibition, entry CCCCC(CC)n1cnc2c(N)ncnc21 (centres undefined) : 12

Form field inhibition, entry Nc1nc(OCCc2ccccc2)nc2[nH]cnc12 : 24
